assay-method-text: Ferric ions (Fe^3+) reducing antioxidant power by cyclic voltammetry
run-conditions: compound alone 0.5 mM in 0.1 M HClO4; 5th Eox
parameter: Eox (V)
Respond numerically; units are V and should not be typed.

Q: Look up Eox (V) for this compound: C/C(=N\Nc1nc(-c2ccc(O)c(O)c2)cs1)c1ccc(O)cc1O.Cl [Compound 8a]
A: 0.985

Q: // returns reported Eox (V) for input C/C(=N\Nc1nc(C)cs1)c1ccc(O)cc1O [Compound 5a]
A: 0.997

Q: Quick one: Eox (V) for Cl.Oc1ccc(/C=N/Nc2nc(-c3ccc(O)c(O)c3)cs2)c(O)c1 [Compound 8b] ?
A: 0.989

----------
assay-method-text: Ferric ions (Fe^3+) reducing antioxidant power by cyclic voltammetry
run-conditions: compound alone 0.5 mM in 0.1 M HClO4; 2nd Iox column
Protocol: The evaluated compounds’ stock solutions used were prepared at a concentration of 5 mM. To test their redox properties, dilutions of 0.5 mM and 2 mM were prepared in 0.1 M HClO4 electrolyte (pH = 1.2). Screen-printed electrodes (SPEs; Metrohm DropSens, Oviedo, Spain) (planar electrodes) with graphite and gold working electrodes were used. […] This method is based on the evaluation of the influence of the compound measured by the direct reduction of Fe[(CN)6]^3− to Fe[(CN)6]^2−. […]
Labelling: Iox (μA) reported below 4 μA becomes 1 (yes); at or above becomes 0 (no).

Q: Iox (μA) under 4 μA? Item: `C/C(=N\Nc1nc(C)cs1)c1ccc(O)cc1O`
A: 0 (no)

Q: I wonder whether `Br.Oc1ccc(/C=N/Nc2nc(-c3ccccc3)cs2)c(O)c1` has Iox (μA) below 4 μA. Can you tell?
A: 0 (no)

Q: # check: Iox (μA) < 4 μA for `Br.C/C(=N\Nc1nc(-c2ccc(O)c(C(N)=O)c2)cs1)c1ccc(O)cc1O`
A: 0 (no)

Q: Lab log: compare recorded Iox (μA) with 4 μA; is it strictly lower for `Cl.Oc1ccc(/C=N/Nc2nc(-c3ccc(O)c(O)c3)cs2)c(O)c1` ?
A: 1 (yes)

Q: Item `Br.NC(=O)c1cc(-c2csc(N/N=C/c3ccc(O)cc3O)n2)ccc1O` : Iox (μA) beneath 4 μA, strictly?
A: 1 (yes)

----------
I'd appreciate it if you could supply Ered (V) values for the items below.
assay-method-text: Ferric ions (Fe^3+) reducing antioxidant power by cyclic voltammetry
run-conditions: compound + Fe^3+/Fe^2+; 1st Ered

Q: Looking for the measured Ered (V) of `Br.C/C(=N\Nc1nc(-c2ccccc2)cs1)c1ccc(O)cc1O` , can you help?
A: 0.142 V

Q: Request the reported Ered (V) associated with `Cc1csc(N/N=C/c2ccc(O)cc2O)n1.Cl`
A: 0.093 V

Q: What does the record list as Ered (V) for `Br.NC(=O)c1cc(-c2csc(N/N=C/c3ccc(O)cc3O)n2)ccc1O` ?
A: 0.161 V

Q: Entry `C/C(=N\Nc1nc(C)cs1)c1ccc(O)cc1O` has what Ered (V)?
A: 0.091 V

Q: For the molecule shown here, `C/C(=N\Nc1nc(-c2ccc(O)c(O)c2)cs1)c1ccc(O)cc1O.Cl` , give the reported Ered (V).
A: 0.054 V
